Every entry's value here was drawn from patent US20250320312A1.

# OD450 annotations
- Assay System: Peptide 1: Biotin-…-[Tyr(PC)]-acid
- Sequence (peptide, as listed by the source): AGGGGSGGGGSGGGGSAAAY
- Test Summary: scFv ELISA
The reply should contain only the number, in OD450.

Here are 2 binders together with their reported answers.
>>> measured_result("PcOxP_DB03_D08 (scFv, V domains shown, scFv in periplasmic extract) VH: EVQLLESGGGLVQPGGSLRLSCAASGFWFSDFYMEWVRQAPGKGLEWVAASRNKANDYTTEYADSVKGRFTISRDNSKNTLYLQMNSLRAEDTAVYYCARDYYGSAYWYFDVWGQGTLVTVSS VL: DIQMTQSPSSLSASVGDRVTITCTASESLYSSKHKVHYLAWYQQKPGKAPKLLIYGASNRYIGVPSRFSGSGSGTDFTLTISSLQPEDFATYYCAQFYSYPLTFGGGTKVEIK")
0.54
>>> measured_result("PcOxP_DB01_G06 (scFv, V domains shown, scFv in periplasmic extract) VH: EVQLLESGGGLVQPGGSLRLSCAASGFTFSDYYMEWVRQAPGKGLEWVAASRNKWNDYTTEYADSVKGRFTISRDNSKNTLYLQMNSLRAEDTAVYYCARDYYGSSYWYFDVWGQGTLVTVSS VL: DIVMTQSPDSLAVSLGERATINCTASESLYSSKHKVHYLAWYQQKPGQPPKLLIYGASNRYSGVPDRFSGSGSGTDFTLTISSLQAEDVAVYYCAQFYSYPLTFGGGTKVEIK")
0.73

Task: Sample PcOxP_DB04_G03 (scFv, V domains shown, scFv in periplasmic extract) VH: EVQLLESGGGLVQPGGSLRLSCAASGFTTSDFYMEWVRQAPGKGLEWVAASRNKANDYTTEYADSVKGRFTISRDNSKNTLYLQMNSLRAEDTAVYYCARDYYGSSYWYFDYWGQGTLVTVSS VL: DIVMTQSPDSLAVSLGERATINCTASESLYSSKHKVHYLAWYQQKPGQPPKLLIYGASNRNIGVPDRFSGSGSGTDFTLTISSLQAEDVAVYYCAHFYSYPLTFGGGTKVEIK — what was its OD450?
Result: 0.19
